This section presents compounds with their documented Kd values.
TARGET OR SYSTEM: Chaperone protein DnaK (Escherichia coli (strain K12)) (UniProt P0A6Y8)
Sequence (P0A6Y8 whole entry, looked up, the tested form may be a part): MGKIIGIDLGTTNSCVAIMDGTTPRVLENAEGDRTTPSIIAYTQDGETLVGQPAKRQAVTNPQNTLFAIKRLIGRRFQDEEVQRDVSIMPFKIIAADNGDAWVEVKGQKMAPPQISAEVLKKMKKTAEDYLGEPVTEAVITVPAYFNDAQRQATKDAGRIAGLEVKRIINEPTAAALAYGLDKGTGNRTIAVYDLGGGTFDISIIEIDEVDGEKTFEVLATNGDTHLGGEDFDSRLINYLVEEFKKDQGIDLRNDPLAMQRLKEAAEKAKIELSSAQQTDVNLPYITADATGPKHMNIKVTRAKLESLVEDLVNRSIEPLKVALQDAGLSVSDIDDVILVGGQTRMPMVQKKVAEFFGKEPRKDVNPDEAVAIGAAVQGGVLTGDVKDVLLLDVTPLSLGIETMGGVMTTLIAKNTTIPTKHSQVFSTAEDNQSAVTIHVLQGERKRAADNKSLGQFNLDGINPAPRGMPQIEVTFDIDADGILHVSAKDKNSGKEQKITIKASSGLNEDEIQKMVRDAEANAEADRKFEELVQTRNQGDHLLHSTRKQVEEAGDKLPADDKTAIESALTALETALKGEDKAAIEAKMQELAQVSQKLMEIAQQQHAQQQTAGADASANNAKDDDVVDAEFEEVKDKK
EXPERIMENT DESCRIPTION: binders of DnaK substrate-binding domain, biophysical, NMR, chaperone (AID 1033)
MEASUREMENT SETUP: Purified DnaK SBD, NMR ligand binding
Active and inactive are the calls of the source. The rule behind the calls is not given here.
MEASURE: Kd

1. O=C1CSC(=Nc2cccc(C(F)(F)F)c2)N1 : > 4 mM (inactive)
2. Cc1occc1C(=O)Nc1nnc(C2CCCCC2)s1 : > 4 mM (inactive)
3. Oc1ccc(C2SCCS2)cc1 : > 4 mM (inactive)
4. NC(=S)NC1CCS(=O)(=O)C1 (centres undefined) : > 4 mM (inactive)
5. c1ccc2nc3c(nc2c1)CCc1nonc1-3 : > 4 mM (inactive)
6. CC(C)NC1CS(=O)(=O)CC1O (centres undefined) : > 4 mM (inactive)
7. Nc1ccc2[nH]ncc2c1 : > 4 mM (inactive)
8. CC(=O)N1CCN(C2CCSC2)CC1 (centres undefined) : > 4 mM (inactive)
9. CC(C)Oc1ccc(NC(N)=O)cc1 : > 4 mM (inactive)
10. Cc1cc(C(=O)N2CCCCCC2)cs1 : > 4 mM (inactive)
11. O=C(O)CN1C(=O)c2cccc([N+](=O)[O-])c2C1=O : > 4 mM (inactive)
12. Cc1nc2ccccc2c(=O)n1CCCO : > 4 mM (inactive)
13. O=C1NC(=O)C(=Cc2ccccc2)C(=O)N1 : > 4 mM (inactive)
14. O=C(CN1CCOCC1)Nc1cccc(Br)c1 : > 4 mM (inactive)
